meta.source: paper PMC9040061

ASSAY_SYSTEM: EfaUPPS M28W mutant (Enterococcus faecalis, UniProt Q831K9, M34W)
PROTOCOL: Surface plasmon resonance binding assay
TEST_SETTINGS: SPR
PARAMETER_MEASURED: pKd
Give bare numbers, as −log10 of the molar value.

Looking for the measured pKd of "COc1cc(O)c2c(O)c3c(c4c2c1[C@]1(C4)C(C)=CCCC1(C)C)[C@H](O)[C@@]1(O)CC(=O)C(C(N)=O)=C(O)[C@@]1(O)C3=O" , can you help?
5.01

* * *

Tested on: E. coli 70S ribosome
PROTOCOL: In vitro translation inhibition assay
Type: biochemical, Escherichia coli
TEST_SETTINGS: read-out: IC50, in vitro translation, PURE system
Could you please report measured IC50 for the items listed next?
Give bare numbers, in µM.

MOLECULE | OBSERVED_MEASUREMENT
CN(C)[C@@H]1C(O)=C(C(N)=O)C(=O)[C@@]2(O)C(O)=C3C(=O)c4c(O)cccc4[C@@](C)(O)[C@H]3C[C@@H]12 [Tet, tetracycline, reference compound] | 15

Shift focus to the following entry.
# returns recorded IC50 (system: E. coli 70S ribosome) for "COc1cc(O)c2c(O)c3c(c4c2c1[C@]1(C4)C(C)=CCCC1(C)C)[C@H](O)[C@@]1(O)CC(=O)C(C(N)=O)=C(O)[C@@]1(O)C3=O"
700
